# Tgt: 11β-hsd-1 enzyme (Homo sapiens)
# Sequence (P28845 whole entry, species assumed): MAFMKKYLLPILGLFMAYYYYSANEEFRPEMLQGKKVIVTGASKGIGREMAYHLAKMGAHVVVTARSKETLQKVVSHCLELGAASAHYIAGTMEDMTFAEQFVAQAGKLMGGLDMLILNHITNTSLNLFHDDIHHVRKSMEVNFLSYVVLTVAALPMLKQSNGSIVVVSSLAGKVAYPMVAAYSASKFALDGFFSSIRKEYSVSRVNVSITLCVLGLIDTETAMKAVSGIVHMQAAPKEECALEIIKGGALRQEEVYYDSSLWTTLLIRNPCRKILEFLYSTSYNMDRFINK
# Assay: 11β-hsd-1 enzyme assay, Kiapp determination (3H-cortisone to cortisol, radio-HPLC)
# Type: biochemical
# Condition Description: apparent Ki, 11β-hsd-1 enzyme; read-out: Ki app
pKi: −log10 of the molar value.
Parameter: pKi

Example cases with answers are listed next.
> print(dat)
                                        mol  experimental.result
1  Cc1ccc(-c2ccc(S(=O)(=O)Nc3cccc(C)n3)cc2C)cc1                 7.80
2  O=S(=O)(Nc1ccc2ccccc2n1)N1CCC(c2ccccn2)CC1                 7.17
3  Cc1cccc(NS(=O)(=O)c2ccc(-c3cccc(F)c3F)c(C)c2)n1                 7.57
4  CCS(=O)(=O)c1ccc(-c2ccc(S(=O)(=O)Nc3cccc(C)n3)c(C)c2)cc1                 7.72
5  Cc1cccc(NS(=O)(=O)c2ccc(-c3cccc(F)c3)c(C)c2)n1                 7.72

1: Cc1cccc(NS(=O)(=O)c2ccc(-c3ccc(F)cc3)cc2C)n1
2: Cc1cccc(NS(=O)(=O)N2CCC(c3ccc(C#N)cc3)CC2)n1
Lab note: check whether 1 or 2 shows the higher recorded pKi. Answer by stating the label of the chosen item.
1

* * *

# Tgt: 11β-hsd-1 enzyme (Homo sapiens)
# Assay: 11β-hsd-1 enzyme assay, percentage of inhibition (3H-cortisone to cortisol, radio-HPLC)
# Assay type: biochemical
# Condition Description: compound at 0.1 uM; read-out: % inh @ 0.1 uM
Parameter: inhibition at 0.1 µM (%)

Example cases with answers are listed next.
> print(dat)
                                   compound             parameter  experimental.result
1  Cc1cccc(NS(=O)(=O)c2ccc(-c3ccc(F)c(Cl)c3)c(C)c2)n1 [Example 219]  inhibition at 0.1 µM                   68
2  Cc1cccc(NS(=O)(=O)N2CCC(Oc3ccccc3)CC2)n1 [Example 314]  inhibition at 0.1 µM                 71.8

1: Cc1cccc(NS(=O)(=O)c2ccc(-c3ccccc3F)c(C)c2)n1 [Example 230]
2: N#Cc1ccc(-c2ccc(S(=O)(=O)Nc3ccc4ccccc4n3)cc2)cn1 [Example 289]
Lab note: check whether 1 or 2 shows the higher recorded inhibition at 0.1 µM. Answer by stating the label of the chosen item.
2
(2: 73.9%, 1: 23%)

1: Cc1cccc(NS(=O)(=O)c2ccc(-c3ccc(Cl)cc3)c(C)c2)n1 [Example 217]
2: Cc1cccc(NS(=O)(=O)c2ccc(-c3ccccn3)cc2)n1 [Example 259]
3: Cc1cccc(NS(=O)(=O)c2ccc(N3CCCCC3)nc2)n1 [Example 269]
4: COc1cc(-c2ccc(C#N)cc2)ccc1S(=O)(=O)Nc1cccc(C)n1 [Example 276]
5: Cc1cccc(NS(=O)(=O)c2ccc(-c3cn(C)cn3)cc2)n1 [Example 260]
Would you mind ranking these compounds by ascending inhibition at 0.1 µM? Show the ranking through the labels, in the order asked for.
3, 5, 2, 4, 1
(3: 2.4%, 5: 14.8%, 2: 30%, 4: 60.1%, 1: 95%)

I: Cc1cccc(NS(=O)(=O)c2ccc(-c3ccc(C#N)cc3)cc2F)n1 [Example 283]
II: Cc1cccc(NS(=O)(=O)c2ccc(-c3ccccc3C)c(C)c2)n1 [Example 218]
Between I and II , which one has the lower reported inhibition at 0.1 µM value? Answer by stating the label of the chosen item.
II

I: Cc1cccc(NS(=O)(=O)c2ccc(-c3ccc4c(c3)CCO4)cc2C)n1 [Example 211]
II: Cc1cccc(NS(=O)(=O)N2CCC(C#N)(c3ccccc3)CC2)n1 [Example 305]
Between I and II , which one has the lower reported inhibition at 0.1 µM value? Answer by stating the label of the chosen item.
II
